Test system: blackgrass (Alopecurus myosuroides)
Assay details: Test A preemergence soil spray, visual injury rating 0-100
Type: in vivo
Details: 16 g ai/ha, 0 to 100 scale, 10 days
In this section, each of the compounds is paired with its reported Blackgrass plant response rating.

- Compound: "CSCCOC(=O)C1CC(NC(=O)C2(C)CN(c3cc(F)cc(F)c3)C(=O)O2)C1 (racemic)"
  Readout label: "Blackgrass plant response rating"
  Measured result: 40
- Compound: "COC(=O)C1C=CC(NC(=O)C2(C)CN(c3cc(F)cc(F)c3)C(=O)O2)C1 (stereo not drawn) [Compound 89]"
  Readout label: "Blackgrass plant response rating"
  Measured result: 30
- Compound: "COC(=O)C1C=CC(NC(=O)C2(C)CN(c3cc(F)cc(F)c3)C(=O)O2)C1 (mixture of isomers) [Compound 161]"
  Readout label: "Blackgrass plant response rating"
  Measured result: 70
- Compound: "COC(=O)COC(=O)C1=CCC(NC(=O)C2(C)CN(c3cc(F)cc(F)c3)C(=O)O2)C1 (stereo not drawn)"
  Readout label: "Blackgrass plant response rating"
  Measured result: 0
- Compound: "COC(=O)C1C=CC(NC(=O)C2(C)CN(c3cc(F)cc(F)c3)C(=O)O2)C1 (stereo not drawn) [Compound 92]"
  Readout label: "Blackgrass plant response rating"
  Measured result: 0
- Compound: "CSCCOC(=O)C1=CCC(NC(=O)C2(C)CN(c3cc(Cl)cc(Cl)c3)C(=O)O2)C1 (stereo not drawn)"
  Readout label: "Blackgrass plant response rating"
  Measured result: 0

The compound CC(C)OC(=O)C1=CCC(NC(=O)C2(C)CN(c3cc(Cl)cc(Cl)c3)C(=O)O2)C1 (stereo not drawn) , when measured on blackgrass (Alopecurus myosuroides), yielded Blackgrass plant response rating of 0

For CCOC(=O)C1C=CC(NC(=O)C2(C)CN(c3cc(C)cc(C)c3)C(=O)O2)C1 (stereo not drawn) on blackgrass (Alopecurus myosuroides), measured Blackgrass plant response rating was 0

###

Test system: blackgrass (Alopecurus myosuroides)
Assay details: Test A preemergence soil spray, visual injury rating 0-100
Format: in vivo
Details: 125 g ai/ha, 10 days, 0 = no effect, 100 = complete control
Listing: Blackgrass plant response rating (0 to 100 scale) of selected compounds
No unit in the answer, please; the number alone is enough.

Record CC(C)OC(=O)C1C=CC(NC(=O)C2(C)CN(c3cc(Cl)cc(Cl)c3)C(=O)O2)C1 (stereo not shown) [Compound 43] . Reported Blackgrass plant response rating (0 to 100 scale): 90

The reported value for COC(=O)C1=CCC(NC(=O)C2(C)CN(c3cc(F)cc(F)c3)C(=O)O2)C1 (stereo not shown) [Compound 21] in terms of Blackgrass plant response rating (0 to 100 scale) is 90

Per the record, CC1(C(=O)NC2CCC(C(=O)O)C2)CN(c2cc(F)cc(Cl)c2)C(=O)O1 (stereo not shown) [Compound 7] has Blackgrass plant response rating (0 to 100 scale) of 70

The value of Blackgrass plant response rating (0 to 100 scale) measured for the compound CNC(=O)C1CC(NC(=O)C2(C)CN(c3cc(F)cc(F)c3)C(=O)O2)CO1 (stereo not shown) [Compound 8] turned out to be 50

# compound CONC(=O)C1CC(NC(=O)C2(C)CN(c3cc(F)cc(F)c3)C(=O)O2)CO1 (stereo not shown) [Compound 40] ; its Blackgrass plant response rating (0 to 100 scale) = 80

Quick note, Blackgrass plant response rating (0 to 100 scale) for CC(C)COC(=O)C1C=CC(NC(=O)C2(C)CN(c3cc(Cl)cc(Cl)c3)C(=O)O2)C1 (stereo not shown) [Compound 66] landed at 80

Form field Blackgrass plant response rating (0 to 100 scale), entry CCOC(=O)C1CC(NC(=O)C2(C)CN(c3cc(F)cc(F)c3)C(=O)O2)CO1 (stereo not shown) [Compound 31] : 30

Blackgrass plant response rating (0 to 100 scale) in this record for CONC(=O)C1CC(NC(=O)C2(C)CN(c3cc(F)cc(F)c3)C(=O)O2)CO1 (stereo not shown) [Compound 39] : 60

// sample CC(C)OC(=O)C1CC(NC(=O)C2(C)CN(c3cc(F)cc(F)c3)C(=O)O2)CO1 (stereo not shown) [Compound 32] , its Blackgrass plant response rating (0 to 100 scale) was 0

CC1(C(=O)NC2CC=C(C(=O)O)C2)CN(c2cc(Cl)cc(Cl)c2)C(=O)O1 (stereo not shown) [Compound 72] yielded Blackgrass plant response rating (0 to 100 scale) of 30

Reported Blackgrass plant response rating (0 to 100 scale) ( CC1(C(=O)NC2C=CC(C(=O)ON=Cc3ccccc3)C2)CN(c2cc(F)cc(F)c2)C(=O)O1 (stereo not shown) [Compound 68] ) = 70

Documented Blackgrass plant response rating (0 to 100 scale) of CCOC(=O)C1=CCC(NC(=O)C2(C)CN(c3cc(Cl)cc(Cl)c3)C(=O)O2)C1 (stereo not shown) [Compound 60] : 50

Entry CC1(C(=O)NC2C=CC(C(=O)NS(=O)(=O)C3CC3)C2)CN(c2cc(Cl)cc(Cl)c2)C(=O)O1 (stereo not shown) [Compound 85] , Blackgrass plant response rating (0 to 100 scale) reported as 20

# Blackgrass plant response rating (0 to 100 scale) of CC(C)OC(=O)C1CCC(NC(=O)C2(C)CN(c3cc(F)cc(Cl)c3)C(=O)O2)C1 (stereo not shown) [Compound 2] = 50

// Blackgrass plant response rating (0 to 100 scale) lookup, compound = CCCOC(=O)C1C=CC(NC(=O)C2(C)CN(c3cc(F)cc(F)c3)C(=O)O2)C1 (stereo not shown) [Compound 34] , result: 90

According to the records, this compound CCOC(=O)C1CCC(NC(=O)C2(C)CN(c3cc(F)cc(Cl)c3)C(=O)O2)C1 (stereo not shown) [Compound 19] displays Blackgrass plant response rating (0 to 100 scale) of 50
